System: HeLa Cells
procedureText: Transfection of HeLa cells with DOTMA/SEQ ID NO: 72/peptide compared with Lipofectamine 2000
Type: cell-based
reportedConditions: 0.2 μL of DOTMA/SEQ ID NO: 72/Peptide in well of a 96 well plate; fusogenic peptide 0.1 mg/mL
property: RF (Relative Fluorescence), DOTMA/SEQ ID NO: 72/Peptide, HeLa Cells
Number only, please.

substance="336 (GEFYFDLRLKGDK; Peptidic transfection agent) [compound 336]" systemundertest="HeLa Cells" endpointresult=16702
substance="343 (LFSHAVSSNG; Peptidic transfection agent) [compound 343]" systemundertest="HeLa Cells" endpointresult=8626
substance="450 (TAGSCLRKFSCL; Peptidic transfection agent) [compound 450]" systemundertest="HeLa Cells" endpointresult=17346
substance="358 (GHRGPTGRPGKRGKQGQKGDS; Peptidic transfection agent) [compound 358]" systemundertest="HeLa Cells" endpointresult=12683
substance="503 (TAGSCLRKFSTMRRRRRRRRRRRR; Peptidic transfection agent) [compound 503]" systemundertest="HeLa Cells" endpointresult=20006

RF (Relative Fluorescence), DOTMA/SEQ ID NO: 72/Peptide, HeLa Cells recorded for this substance, 348 (HQQDLGTAGSCLRKFSTM; Peptidic transfection agent) [compound 348] , is 18615

Value of measured RF (Relative Fluorescence), DOTMA/SEQ ID NO: 72/Peptide, HeLa Cells for the entry 360 (GDLGRPGRKGRPGPP; Peptidic transfection agent) [compound 360] : 11168

Entry 219 (RKRLQVQLSIRT; Peptidic transfection agent) [compound 219] ; RF (Relative Fluorescence), DOTMA/SEQ ID NO: 72/Peptide, HeLa Cells = 13841
